pIC50: recorded values
- subject-of-test: muscarinic receptors
- Assay type: binding, Hooded Lister rats
- test-context: 0.27 nM 3H-QNB; rat cerebral cortex; 37° C., 30 min; pH 7.7; non-specific: 1 μM Atropine sulphate
Counter-ions that a name gives are not always drawn.
# pIC50 = -log10(concentration in molar units)

Completed entries (count: 2):
{"compound": "CON=C(Br)[C@H]1CN2CC[C@H]1C2 (relative stereo) [Example E18]", "subject-of-test": "muscarinic receptors", "pIC50": 4.96}
{"compound": "CCON=C(C#N)[C@H]1CN2CC[C@H]1C2 (relative stereo) [Example E22, oxalate salt]", "subject-of-test": "muscarinic receptors", "pIC50": 5.00}

Param item = CON=C(Br)[C@@H]1CN2CC[C@H]1C2 (relative stereo) [Example E19] ; retrieve measured pIC50.
5.44

Requested field: pIC50. Item: CON=C(CC#N)[C@@H]1CN2CC[C@H]1C2 (relative stereo) [Example E28]
4.78

Name the reported pIC50 value associated with the compound CON=C(F)C12CCN(CC1)C2 [Example E14, oxalate salt]
4.81

Could you tell me which pIC50 is on file for C#CC(=NOC)C12CCCN(CC1)C2 (racemic) [Example E4, oxalate salt] ?
5.84

Form field: reported pIC50 of CON=C(Cl)[C@@H]1CN2CC[C@H]1C2 (relative stereo) [Example E16, oxalate salt]
5.15

// returns reported pIC50 for input CON=C(F)[C@H]1CN2CC[C@H]1C2 (relative stereo) [Example E20, oxalate salt]
5.52

Report pIC50 for CCON=C(Cl)[C@H]1CN2CC[C@H]1C2 (relative stereo) [Example E21, oxalate salt] please.
4.81

Which pIC50 value is on record for CON=C(C#N)[C@H]1CN2CC[C@H]1C2 (relative stereo) [Example E9, hydrochloride salt] ?
5.68

Need pIC50, item CON=C(C#N)[C@@H]1CN2CC[C@H]1C2 (relative stereo) [Example E17, oxalate salt]
5.44

* * *

- subject-of-test: muscarinic receptors
- procedure-summary: Radio ligand binding: displacement of muscarinic agonist 3H-OXO-M (3H-Oxotremorine-M), rat cerebral cortex membranes
- Parameters: species or system Hooded Lister rats
- test-context: 2 nM 3H-OXO-M, 2 mM magnesium chloride, 37° C., 30 min, pH 7.7, non-specific: 10 μM Oxotremorine
Where a name gives a salt, the structure may show the parent alone.
measured-quantity: log10 IC50 (log10 of the value in nM)
Please interpret these as log10 of IC50 where IC50 is in nM.

Below are worked cases with known answers.
{"molecule": "CON=C(CC#N)[C@H]1CN2CC[C@H]1C2 (relative stereo) [Example E27]", "recorded-value": 1.85}
{"molecule": "CON=C(CC#N)[C@@H]1CN2CC[C@H]1C2 (relative stereo) [Example E28]", "recorded-value": 2.88}
{"molecule": "CON=C(Cl)C12CCN(CC1)C2 [Example E11, oxalate salt]", "recorded-value": 1.58}
{"molecule": "CON=C(Cl)[C@@H]1CN2CC[C@H]1C2 (relative stereo) [Example E16, oxalate salt]", "recorded-value": 2.00}
{"molecule": "CON=C(Br)C12CCN(CC1)C2 [Example E13, oxalate salt]", "recorded-value": 2.23}
{"molecule": "CON=C(Br)[C@H]1CN2CC[C@H]1C2 (relative stereo) [Example E18]", "recorded-value": 1.66}
{"molecule": "CON=C(C#N)[C@H]1CN2CC[C@H]1C2 (relative stereo) [Example E9, hydrochloride salt]", "recorded-value": 1.40}
{"molecule": "CON=C(C#N)C12CCCN(CC1)C2 (racemic) [Example E6, hydrochloride salt]", "recorded-value": 2.06}

Turning to the following molecule.
Returns the measured log10 IC50 for the input molecule. Input: CON=C(Br)[C@@H]1CN2CC[C@H]1C2 (relative stereo) [Example E19]
2.10
